Data credit: paper PMC6917776

assay: CelltiterGlo viability cell assay; type: cell-based; settings: human, HCC1143 cells, HCC1143, 3 day, 0.1 uM; read-out: viability Replicate 3
READOUT: viability at 3 day, 0.1 µM (%)
// units = %; emit number, no label

# viability at 3 day, 0.1 µM of COc1cc(OC)cc(-c2noc(N3CCN(C)C4(CCN(c5ccnc(C)c5)CC4)C3)n2)c1 = 94.6

====

assay: CelltiterGlo viability cell assay; format: cell-based; details: human, MDA-MB-436 breast cancer cells, MDA MB436, 3 day, 9.5 uM; read-out: viability Replicate 1
READOUT: viability at 3 day, 9.5 µM (%)
I only need the number, in %, no unit after it.

Recorded viability at 3 day, 9.5 µM (compound COc1cc(OC)cc(-c2noc(N3CCN(C)C4(CCN(c5ccnc(C)c5)CC4)C3)n2)c1 ): 108
